System name: Phospholipase A2 (Homo sapiens, UniProt P04054)
Sequence (P04054 whole entry): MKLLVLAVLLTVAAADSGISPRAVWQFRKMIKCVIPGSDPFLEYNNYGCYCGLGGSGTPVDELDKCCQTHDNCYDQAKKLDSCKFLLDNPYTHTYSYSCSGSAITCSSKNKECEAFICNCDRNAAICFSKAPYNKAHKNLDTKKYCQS
Test method notes: In vitro inhibition of human recombinant secretory Phospholipase A2 (group I).
# Lookup of reported pIC50 keyed by entry
Please keep in mind that pIC50 is minus log10 of the molar concentration; only the number is needed.

Input line: What does the record list as pIC50 for COc1c(C)c(OC(=O)c2c(C)c(C)c(OC(=O)C3=C(C)[C@@](C)(O)C4(O)Oc5c(C)c(OC)c(C(=O)Oc6c(C)c(C)c(C(=O)O)c(OC)c6C)c(C)c5C[C@@]4(C)C3=O)c(C)c2OC)c(C)c(C)c1C(=O)O (stereo not given in full) [THIELOCIN A1] ?
Output line: 3.87

Input line: What does the record list as pIC50 for "COc1ccc(Sc2ccc(OC)c(C(=O)Oc3c(C)c(C)c(C(=O)Oc4c(C)c(C)c(C(=O)O)c(OC)c4C)c(OC)c3C)c2)cc1C(=O)O" ?
Output line: 4.00

Input line: What does the record list as pIC50 for "COc1ccc(S(=O)(=O)c2ccc(OC)c(C(=O)Oc3c(C)c(C)c(C(=O)Oc4c(C)c(C)c(C(=O)O)c(OC)c4C)c(OC)c3C)c2)cc1C(=O)Oc1c(C)c(C)c(C(=O)Oc2c(C)c(C)c(C(=O)O)c(OC)c2C)c(OC)c1C" ?
Output line: 5.05
